Assay: Hydrophilicity, logD of the compound
Assay type: physicochemical
Settings: octanol/water

# COMPOUND_STRING, logD
measured = [
    ("CN(C)CCCNC(=O)Cn1cnc2c1c(=O)n(C)c(=O)n2C", -3),
]

----------
Biological target: Tumor necrosis factor receptor superfamily member 16 (Mus musculus, UniProt Q9Z0W1)
Sequence (Q9Z0W1 whole entry): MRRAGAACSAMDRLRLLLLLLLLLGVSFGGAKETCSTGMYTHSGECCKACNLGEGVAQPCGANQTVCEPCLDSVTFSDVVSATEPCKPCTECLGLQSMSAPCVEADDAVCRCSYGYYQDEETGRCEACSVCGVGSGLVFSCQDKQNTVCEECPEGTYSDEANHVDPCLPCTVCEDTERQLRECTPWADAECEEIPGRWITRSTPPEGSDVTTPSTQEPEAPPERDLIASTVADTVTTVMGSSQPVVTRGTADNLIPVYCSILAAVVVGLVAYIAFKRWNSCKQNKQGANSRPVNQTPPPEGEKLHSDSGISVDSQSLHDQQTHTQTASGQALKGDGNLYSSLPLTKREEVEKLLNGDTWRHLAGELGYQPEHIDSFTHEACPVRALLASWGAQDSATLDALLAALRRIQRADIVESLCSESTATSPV
Assay: Activation of p75NTR in C57BL/6 mouse brain assessed as suppression of carbachol-mediated persistant firing of entorhinal cortex after 15 mins by current-clamp technique
RESULT_TYPE: EC50

# COMPOUND_STRING, TESTED_TARGET, ENDPOINT_RESULT
data = [
    ("CN(C)CCCNC(=O)Cn1cnc2c1c(=O)n(C)c(=O)n2C", "Tumor necrosis factor receptor superfamily member 16 (Mus musculus, UniProt Q9Z0W1)", "< 10 nM"),
]
